The reported numbers originate from patent US10494332B2.

Molecular target: VHZ (Homo sapiens)
Sequence (Q9BVJ7 1-150): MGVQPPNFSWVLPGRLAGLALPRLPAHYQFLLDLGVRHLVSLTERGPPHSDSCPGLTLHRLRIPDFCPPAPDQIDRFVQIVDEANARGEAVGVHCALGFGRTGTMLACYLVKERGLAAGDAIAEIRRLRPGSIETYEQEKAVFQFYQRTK
pIC50: −log10 of the molar value.
Assign pIC50 to each entry below.

Ask: Give recorded pIC50 with VHZ (Homo sapiens) for the following compound: O=C(Nc1nc2ccccc2s1)C(c1ccccc1)S(=O)(=O)O (stereo not drawn)
Result: < 3.70

Ask: Give recorded pIC50 with VHZ (Homo sapiens) for the following compound: O=C(Nc1cccc(OCc2ccccc2)c1)C(c1ccccc1)S(=O)(=O)O (stereo not drawn)
Result: < 3.70

Ask: Give recorded pIC50 with VHZ (Homo sapiens) for the following compound: O=C(C(c1ccccc1)S(=O)(=O)O)N1CCCC2CCCCC21 (stereo not drawn)
Result: < 3.70

Ask: Give recorded pIC50 with VHZ (Homo sapiens) for the following compound: O=C(C(c1ccccc1)S(=O)(=O)O)N1CCC(c2ccc(Cl)c(Cl)c2)CC1 (stereo not drawn)
Result: 4.10

Ask: Give recorded pIC50 with VHZ (Homo sapiens) for the following compound: O=C(C(c1ccccc1)S(=O)(=O)O)N1CCC(Cc2ccccc2)CC1 (stereo not drawn)
Result: < 3.70

Ask: Give recorded pIC50 with VHZ (Homo sapiens) for the following compound: O=C(Nc1ccc2nc(C(F)(F)F)[nH]c2c1)C(c1ccccc1)S(=O)(=O)O (stereo not drawn)
Result: < 3.70
